tested on: AT1 receptor (Homo sapiens (Human), UniProt P30556)
Sequence (P30556 whole entry): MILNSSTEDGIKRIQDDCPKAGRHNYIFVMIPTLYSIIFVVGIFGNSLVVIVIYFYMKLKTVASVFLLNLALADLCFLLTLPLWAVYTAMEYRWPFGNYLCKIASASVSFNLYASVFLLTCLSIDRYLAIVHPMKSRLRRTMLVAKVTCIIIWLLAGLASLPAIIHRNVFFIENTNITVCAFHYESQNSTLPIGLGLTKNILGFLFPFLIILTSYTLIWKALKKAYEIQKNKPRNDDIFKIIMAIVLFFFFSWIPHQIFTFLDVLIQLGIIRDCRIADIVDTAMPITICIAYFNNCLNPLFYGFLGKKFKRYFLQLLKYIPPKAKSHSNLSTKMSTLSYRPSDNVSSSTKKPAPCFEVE
assay info: AT1 receptor binding inhibitory action
Where a name gives a salt, the structure may show the parent alone.
measured endpoint: IC50 (nM)
The reply should be a number in nM, with the unit left off.

Observe how each entry below is paired with its result.
Cc1ccc(CCn2c(=O)c3cc(CC(F)(F)F)sc3n(Cc3ccc(-c4ccccc4-c4noc(=O)[nH]4)cc3)c2=O)cc1 [Ex. 59]; 1.2
CCc1cc2c(=O)n(CC(=NOC)c3ccccc3)c(=O)n(Cc3ccc(-c4ccccc4-c4noc(=O)[nH]4)cc3)c2s1 [Ex. 215]; 1.3
CCc1cc2c(=O)n(C/C(=N/OC)C(C)(C)C)c(=O)n(Cc3ccc(-c4ccccc4-c4noc(=O)[nH]4)cc3)c2s1 [Ex. 142]; 1.5
C=CCON=C(Cn1c(=O)c2cc(CC)sc2n(Cc2ccc(-c3ccccc3-c3noc(=O)[nH]3)cc2)c1=O)c1ccc(OC)cc1 [Ex. 214]; 1.8
CCc1cc2c(=O)n(CC(=NOC(C)C)c3ccc(OC)cc3)c(=O)n(Cc3ccc(-c4ccccc4-c4noc(=O)[nH]4)cc3)c2s1 [Ex. 213]; 2

Problem: Short answer please: IC50, AT1 receptor (Homo sapiens (Human), UniProt P30556), entry COc1ccc(C(=O)Cn2c(=O)c3cc(C4CC4)sc3n(Cc3ccc(-c4ccccc4-c4noc(O)n4)cc3F)c2=O)cc1 [Ex. 105, potassium salt]
Solution: 1
